procedure text: Quantitative High-Throughput drug screen in 47 multiple myeloma cell lines against the NCATS MIPE library collection: KMS27_JCRB cell viability assay (AID 1918970); note: nearly all actives have a fitted effect of over 30% in size
assay context: KMS27 myeloma cells, CellTiter-Glo ATP viability, 48 h
Inconclusive results are not listed. Activity calls are given as the source filed them. Calls come from the whole dose curve; as a rule, active = well fitted cell-killing curve with a large enough effect; inconclusive = small, poorly fitted or top-dose-only effect, or effect the other way; inactive = no such curve, though single readings can be large or run the other way.
Your answer must be one of the following: true (1) = active, false (0) = inactive

compound	class label
CCCCC[C@H](O)C=C[C@H]1[C@H](O)CC(=O)[C@H]1CC=CCCCC(=O)O	false (0)
COc1ccc2cc1Oc1ccc(cc1)C[C@H]1c3cc(c(OC)cc3CCN1C)Oc1c(OC)c(OC)cc3c1[C@H](C2)N(C)CC3	true (1)
C[C@@H]1C[C@H]2[C@@H]3CCC4=CC(=O)C=C[C@]4(C)[C@@]3(F)[C@@H](O)C[C@]2(C)[C@@]1(O)C(=O)CO	false (0)
COc1c(C)c2c(c(O)c1CC=C(C)CCC(=O)OCCN1CCOCC1)C(=O)OC2	true (1)
CN1N=C(N)c2cn([C@@H]3O[C@H](COP(=O)(O)O)[C@@H](O)[C@@H]3O)c3ncnc1c23	true (1)

Given `CN[C@H]1[C@@H](O[C@@H]2[C@H](O[C@@H]3[C@@H](O)[C@@H](O)[C@@H](N=C(N)N)[C@@H](O)[C@@H]3N=C(N)N)O[C@H](C)[C@@]2(O)C=O)O[C@@H](CO)[C@@H](O)[C@H]1O` , state the outcome it received in this test.
false (0)

Query: recorded result category for `COc1cc2nccc(Oc3ccc(NC(=O)Nc4cc(C)on4)c(Cl)c3)c2cc1OC` in this test
false (0)

Would you mind telling me which call this test gave `O=c1[nH]c(=O)n([C@H]2C[C@@H](O)[C@@H](CO)O2)cc1C(F)(F)F` ?
true (1)

// param item: C[C@@H]1O[C@@H](O[C@H]2CC[C@@]3(C)[C@H](CC[C@@H]4[C@H]3C[C@@H](O)[C@]3(C)[C@@H](C5=CC(=O)OC5)CC[C@]43O)C2)C[C@H](O)[C@@H]1O[C@H]1C[C@H](O)[C@H](O[C@H]2C[C@H](O)[C@@H](O)[C@@H](C)O2)[C@H](C)O1 (stereo in doubt) ; yields the recorded call
true (1)

Look up the recorded call for `OC[C@H]1O[C@@H](O[C@H]2[C@@H](O)[C@@](O)(CO)O[C@@H]2CO)[C@H](O)[C@@H](O)[C@@H]1O` in this test.
false (0)

Dear all, I need the recorded test outcome for `CC(C)[C@H](O)C(=O)N[C@@H](C)C(=O)N[C@@H]1C(=O)N(C)CCc2ccccc21` , thank you.
false (0)

State the result this test recorded for O=C(CCCN1CCN(c2ccc(F)cc2)CC1)NC1c2ccccc2CSc2ccccc21 (centres undefined) .
true (1)

# outcome recorded in this test, key = `CO[C@H]1C=CO[C@@]2(C)Oc3c(C)c(O)c4c(O)c(c(C=NN5CCN(C)CC5)c(O)c4c3C2=O)NC(=O)C(C)=CC=C[C@H](C)[C@H](O)[C@@H](C)[C@@H](O)[C@@H](C)[C@H](OC(C)=O)[C@H]1C`
false (0)

GET /call?item= CN1CC(=O)N2C(Cc3c([nH]c4ccccc34)[C@H]2c2ccc3c(c2)OCO3)C1=O (some centres undefined) returns the recorded outcome of this test.
false (0)

* * *

procedure text: qHTS of pediatric cancer cell lines to identify multiple opportunities for drug repurposing: Primary screen for BT-37 cells (AID 1347094); note: potency is the fitted concentration of half-maximal effect
assay context: BT-37 viability, CellTiter-Glo luminescence, 48 h; series mostly up to 57.3 µM
Records with an inconclusive call do not appear. Activity calls are given as the source filed them. Calls follow the shape of the dose curve; as a rule, active = well fitted cell-killing curve with a large enough effect; inconclusive = small, poorly fitted or top-dose-only effect; inactive = flat fitted curve, though single readings scatter.
property label: Potency

Example results:
compound	Potency
CC(NCCc1ccc(O)cc1)C(O)c1ccc(O)cc1 (stereo not drawn)	inactive
CC(C)(C)c1nc(-c2cccc(NS(=O)(=O)c3c(F)cccc3F)c2F)c(-c2ccnc(N)n2)s1	inactive
CCN1C[C@H](C)n2c(c(O)c3c(=O)n(Cc4ccc(F)c(Cl)c4)nc(C(=O)NC)c32)C1=O	inactive
COc1ccc(-c2cc(=O)c3c(O)cc(O[C@@H]4O[C@H](CO[C@@H]5O[C@@H](C)[C@H](O)[C@@H](O)[C@@H]5O)[C@@H](O)[C@H](O)[C@@H]4O)cc3o2)cc1O	inactive
O=C(O)c1nc(=O)[nH]c(=O)[nH]1	inactive
CC1CNc2c(cccc2S(=O)(=O)N[C@@H](CCCN=C(N)N)C(=O)N2CC[C@@H](C)C[C@@H]2C(=O)O)C1 (stereo partly drawn)	10.9 µM (active)
C=CC[N+]1([C@H]2C[C@H]3[C@@H]4CC[C@H]5C[C@H](O)[C@@H](N6CCOCC6)C[C@]5(C)[C@@H]4CC[C@]3(C)[C@H]2OC(C)=O)CCCC1	inactive

Per the record, `CC(C)Oc1cc(Nc2nc(N[C@@H](C)c3ccc(F)cn3)ncc2Cl)[nH]n1` has Potency of 27.3 µM (active)

* * *

procedure text: Quantitative High-Throughput drug screen in 47 multiple myeloma cell lines against the NCATS MIPE library collection: KMS28BM_JCRB cell viability assay (AID 1919874); note: nearly all actives have a fitted effect of over 35% in size; note: potency is the fitted concentration of half-maximal effect
assay context: CellTiter-Glo ATP, 48 h; series mostly up to 45.8 µM
Inconclusive results are not listed. Active and inactive are the calls of the source. The call rests on the fitted dose curve; in most records, active means well fitted cell-killing curve with a large enough effect; inconclusive means small, poorly fitted or top-dose-only effect, or effect the other way; inactive means no such curve, though single readings can be large or run the other way.
property label: Potency

molecule	Potency
CN1CCN(c2cccc(Nc3nc4c(-c5ccc(S(C)(=O)=O)cc5)cccn4n3)c2)CC1	0.743 µM (active)
O=S(=O)(NCCNCC=Cc1ccc(Br)cc1)c1cccc2cnccc12	16.6 µM (active)
CN1CCC(COc2cnc(-c3cccc(Cn4nc(-c5cccc(C#N)c5)ccc4=O)c3)nc2)CC1	inactive
O=C(O)C1=CO[C@@H](O[C@@H]2O[C@H](CO)[C@H](O)[C@H](O)[C@H]2O)[C@@H]2C(CO)=CC[C@H]12	inactive
CN1CCN2c3ncccc3Cc3ccccc3C2C1 (centres undefined)	inactive
CC1(C)C(N(O)C(=O)Nc2ccc(Cl)cc2)N(c2ccc(Cl)cc2)C(=O)N1CC(=O)NN=CC=Cc1ccc([N+](=O)[O-])o1 (centres undefined)	8.33 µM (active)
Cc1cn([C@@H]2C[C@@H](O)[C@H](CO)O2)c(=O)[nH]c1=O	inactive
CC(C)=CCCC(C)=CCCC(C)=CCCC(C)=CCCC(C)=CCCC(C)=CCCC(C)=CCCC(C)=CCCC(C)=CCO	inactive
O=C(CCCN1CCN(c2ccc(F)cc2)CC1)NC1c2ccccc2CSc2ccccc21 (centres undefined)	11.8 µM (active)
COc1nc(C)cnc1NS(=O)(=O)c1cccnc1-c1ccc(-c2nnco2)cc1	inactive

Consider the following items and state reported Potency for each.
1. COc1c(C)c2c(c(O)c1CC=C(C)CCC(=O)OCCN1CCOCC1)C(=O)OC2
2. CCNC(=O)c1noc(-c2cc(C(C)C)c(O)cc2O)c1-c1ccc(CN2CCOCC2)cc1
3. COc1ccc(CCN(C)CCCOc2ccc(S(=O)(=O)c3[nH]c4ccccc4c3C(C)C)cc2)cc1OC

["3.32 µM (active)", "0.0332 µM (active)", "13.2 µM (active)"]

Respectfully, I request Potency for each entry included below.
1. CN1CC(=O)NC1=NC(=O)Nc1cccc(Cl)c1
2. CN(C)CCN(C)C(=O)c1ccc(NC(=O)Nc2ccc(-c3nc(N4CCOCC4)c4ccn(CC(F)(F)F)c4n3)cc2)cc1
3. NCc1c[nH]c(=S)n1[C@H]1CCc2c(F)cc(F)cc2C1
4. O=C(CC12CC3CC(CC(C3)C1)C2)Nc1cccc2nc(NCCNCCO)ccc12

1: inactive; 2: 0.0148 µM (active); 3: 20.9 µM (active); 4: 23.5 µM (active)

Answer for every listed entry: what is its Potency? The entries follow.
1. O=S(=O)(O)c1ccc2cc(N=Nc3cc(S(=O)(=O)O)c4cccnc4c3O)ccc2c1
2. C[C@@]1(C(=O)Nc2ccc(F)nc2)CCCN1c1nc(Nc2cc(C3CC3)[nH]n2)c2cccn2n1

1.87 µM (active)
0.0372 µM (active)

* * *

Test system: HaCat
procedure text: Cytotoxic Profiling of Annotated Libraries Using Quantitative High-Throughput Screening (AID 1296008); note: nearly all actives have a fitted effect of over 60% in size
assay context: Five cell lines viability, CellTiter-Glo ATP luminescence, 48-72 h
Inconclusive results are not listed. The source made the active and inactive calls. Calls follow the shape of the dose curve; as a rule, active = well fitted inhibition curve with a large enough effect; inconclusive = small, poorly fitted or top-dose-only effect; inactive = flat fitted curve, though single readings scatter.
Assign a class; possible classes are true (1) for active, false (0) for inactive

Previously resolved entries follow.
compound	assayed system	class label
FC(F)(F)c1ccc(C=Cc2nc(COc3ccc(CCCCn4ccnn4)cc3)co2)cc1	HaCat	true (1)
OC(c1cc(C(F)(F)F)nc2c(C(F)(F)F)cccc12)C1CCCCN1 (stereo not given)	HaCat	false (0)
COC1CCC(C(=O)c2ccc3nc4c(cc3c2)CCCO4)CC1 (stereo not given)	HaCat	false (0)
CN1CCC(COc2cnc(-c3cccc(Cn4nc(-c5cccc(C#N)c5)ccc4=O)c3)nc2)CC1	HaCat	false (0)
Cc1nc2c([nH]1)CCN(C(=O)c1ccc(NC(=O)c3ccccc3-c3ccccc3)cc1)c1ccccc1-2	HaCat	false (0)

Proceed to the following item.
What did this assay record as the result for `NCc1c[nH]c(=S)n1[C@H]1CCc2c(F)cc(F)cc2C1` ?
false (0)
